These data points were gathered from PubChem BioAssay.

System: XIP peptide (Xip251-270)
test-method-notes: small-molecule binders of XIP peptide, primary screen, biochemical, small-molecule microarray, fluorescence 635/667 nm, 0.5 µg/mL protein (AID 1183)
condition-context: small-molecule microarray binding, fluorescence 635 nm; higher = more signal
The following compounds are listed with their measured composite z-score values.
The answer should be a number; do not append a unit.

Q: Look up composite z-score with XIP peptide (Xip251-270) for this compound: COc1cccc([C@H]2Oc3ccc(OC)cc3C(=NOC[C@@H](O)[C@H]3O[C@@H]4OC(C)(C)O[C@@H]4[C@H]3O)[C@@H]2O)c1
Result: 0.697

Q: Look up composite z-score with XIP peptide (Xip251-270) for this compound: CCCNC(=O)OC[C@H]1O[C@H](c2ccccc2)C=C[C@@H]1Oc1ccc(OC)cc1
Result: 0.631

Q: Look up composite z-score with XIP peptide (Xip251-270) for this compound: COC(=O)[C@H](C)NC(=O)CCC1CC(OC(=O)NCc2ccc3c(c2)OCO3)CC2(CCCC(COC(=O)NCc3cccc(C(F)(F)F)c3)O2)O1 (some centres undefined)
Result: 0.717

Q: Look up composite z-score with XIP peptide (Xip251-270) for this compound: CC(C)(C)N1C(=O)[C@H]2[C@H]3[C@H](O)[C@H](O)CC(=O)[C@@H]3CC[C@H]2C1=O
Result: 0.419

Further cases:
Q: Look up composite z-score with XIP peptide (Xip251-270) for this compound: O=C1C2=CC[C@H]3C(=O)N(c4cccc(Oc5ccccc5)c4)C(=O)[C@H]3[C@H]2[C@H](O)[C@@H]2O[C@H]12
Result: 0.182

Q: Look up composite z-score with XIP peptide (Xip251-270) for this compound: CC=CC1=C(CO)C(=O)[C@@H]2O[C@@H]2C1=O
Result: 0.736

Q: Look up composite z-score with XIP peptide (Xip251-270) for this compound: CCOC(=O)NN=C1C[C@@H](O)[C@@H](O)[C@@H]2[C@@H]3C(=O)N(c4cccc(Oc5ccccc5)c4)C(=O)[C@@H]3CC[C@H]12
Result: 0.0776

Q: Look up composite z-score with XIP peptide (Xip251-270) for this compound: COC(=O)[C@@H]1CC[C@H](C)[C@@H](c2ccc(C)cc2)N1C(=O)c1ccc(C=NO[C@@H]2O[C@H](COC(C)=O)[C@@H](OC(C)=O)[C@H](OC(C)=O)[C@H]2OC(C)=O)cc1
Result: 0.649

Q: Look up composite z-score with XIP peptide (Xip251-270) for this compound: CO[C@H]1COC(=O)[C@@H]2CCCN2C(=O)CC=C[C@@H](C)[C@H](OC)COC(=O)[C@@H](OCc2ccccc2)C=C[C@@H]1C
Result: 0.789

Q: Look up composite z-score with XIP peptide (Xip251-270) for this compound: COc1ccc(O[C@H]2C=C[C@@H](c3ccccc3)O[C@@H]2CON=C(C)CCN2CCc3nc(-c4ccccc4)c(-c4ccccc4)cc3C2)cc1
Result: 0.445

Q: Look up composite z-score with XIP peptide (Xip251-270) for this compound: Cc1ccc(S(=O)(=O)N[C@H]2COC(=O)CC=C[C@H](C)[C@@H](NS(=O)(=O)c3ccc(C)cc3)COC(=O)CC=C[C@@H]2C)cc1
Result: -0.019

###

test-method-notes: small-molecule microarray binders of probe aCHRDL2, primary screen, biochemical, biotinylated probe, 635/667 nm fluorescence (AID 1100)
condition-context: higher = more signal
Tick 1.0 if composite z-score is -0.6 or greater. Tick 0.0 if composite z-score is less than -0.6.

Here's what some known entries look like.
Q: composite z-score >= -0.6 for C[C@@H]1C=CCC(=O)OC[C@H]2O[C@@H](C=C[C@@H]2O)[C@H](C)C=CCC(=O)OC1 ?
Result: 0.0

Q: composite z-score >= -0.6 for CC(C)=CCCC(C)=CCON=C1C[C@@H](O)[C@@H](O)[C@@H]2[C@@H]3C(=O)N(Cc4ccccc4)C(=O)[C@@H]3CC[C@H]12 ?
Result: 0.0

Q: composite z-score >= -0.6 for CCOC(=O)[C@H](Cc1ccccc1)NC(=O)OC1CC(CCC2CC(CC)=NO2)OC2(CCCC(COC(=O)NCCC(C)C)O2)C1 (stereo not given in full) ?
Result: 1.0

Q: composite z-score >= -0.6 for O=C1[C@H]2[C@H]3[C@H](O)[C@H](O)CC(=NOC[C@@H](O)COCc4ccco4)[C@H]3CC[C@H]2C(=O)N1Cc1ccccc1 ?
Result: 0.0

Q: composite z-score >= -0.6 for CCOC(=O)[C@H](Cc1ccccc1)NC(=O)CCC1CC(OC(=O)NCc2cccc3ccccc23)CC2(CCCC(COC(=O)NCc3cccc(C(F)(F)F)c3)O2)O1 (stereo not given in full) ?
Result: 1.0

Field: next compound
Q: composite z-score >= -0.6 for O=C1OCCC=C1C(O)CCc1ccccc1 (stereo not given) ?
Result: 1.0

###

The following compounds are listed with their measured composite z-score values.
test-method-notes: binders of probe aFGF10 on microarray, primary screen, stem cell growth factor project, biochemical, small-molecule microarray, fluorescence 635/667 (AID 1071);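 also: score merges 667 nm spot intensity and signal to noise from triplicate slides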
condition-context: higher = more signal
The answer should be a number; do not append a unit.

Q: Dear colleague, I am looking for the recorded composite z-score of the following compound: CCOC(=O)NN=C1C[C@@H](O)[C@@H](O)[C@@H]2[C@@H]3C(=O)N(c4cccc(Oc5ccccc5)c4)C(=O)[C@@H]3CC[C@H]12
Result: 0.221

###

measured-on: Homeobox protein Hox-A13 (Mus musculus)
test-method-notes: inhibitors of HoxA13-DNA binding, primary screen, biochemical, fluorescence polarization, labeled oligonucleotide (AID 1185)
condition-context: 15 min, higher = more signal, called active from +8 up or from −8 down
The following compounds are listed with their measured z-score values.
The answer should be a number; do not append a unit.

Q: Look up z-score with Homeobox protein Hox-A13 (Mus musculus) for this compound: CCN1C(=O)[C@H]2[C@H]3[C@H](O)[C@H](O)CC(=NOC[C@H]4O[C@H](c5ccccc5)C=C[C@@H]4Oc4ccc(OC)cc4)[C@@H]3CC[C@H]2C1=O
Result: -10.8

Further cases:
Q: Look up z-score with Homeobox protein Hox-A13 (Mus musculus) for this compound: CC(C)=CCCC(C)=CCON=C1C[C@@H](O)[C@@H](O)[C@@H]2[C@@H]3C(=O)N(c4ccc(F)cc4F)C(=O)[C@@H]3CC[C@@H]12
Result: -4.62

Q: Look up z-score with Homeobox protein Hox-A13 (Mus musculus) for this compound: O=C1[C@H]2[C@H]3[C@H](O)[C@H](O)CC(=NOC[C@@H](O)COCc4ccco4)[C@@H]3CC[C@H]2C(=O)N1C[C@@H]1CCCO1
Result: 0.515

###

measured-on: Follistatin-related protein 3 (Homo sapiens) (UniProt O95633)
Sequence (O95633 whole entry, looked up): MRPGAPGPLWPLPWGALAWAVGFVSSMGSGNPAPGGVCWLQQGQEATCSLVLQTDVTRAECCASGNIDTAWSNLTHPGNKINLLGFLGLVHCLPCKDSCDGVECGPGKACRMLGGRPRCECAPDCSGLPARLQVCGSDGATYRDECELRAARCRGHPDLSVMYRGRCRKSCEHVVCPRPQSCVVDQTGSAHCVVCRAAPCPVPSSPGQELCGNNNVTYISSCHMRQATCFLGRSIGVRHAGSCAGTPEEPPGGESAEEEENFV
test-method-notes: FSTL3 binders on small-molecule microarrays, primary screen, biochemical, small-molecule microarray, 635 nm fluorescence (AID 1105);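 also: score merges emission near 667 nm and signal to noise per printed spot across three slides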
condition-context: FSTL3 binding, higher = more signal
parameter-measured: composite z-score
The answer should be a number; do not append a unit.

Guide cases for composite z-score, answers given:
Q: Look up composite z-score with Follistatin-related protein 3 (Homo sapiens) (UniProt O95633) for this compound: CCOC(=O)[C@H](CC(C)C)NC(=O)CCC1CC(OC(=O)NCCc2ccc(F)cc2)CC2(CCCC(COC(=O)NCC3CCCCC3)O2)O1 (some centres undefined)
Result: 0.8

Q: Look up composite z-score with Follistatin-related protein 3 (Homo sapiens) (UniProt O95633) for this compound: COC(=O)[C@@H]1CC[C@H](C)[C@@H](c2ccc(C)cc2)N1C(=O)c1ccc(C=NO[C@@H](C)c2cn([C@H](CO)Cc3ccccc3)nn2)cc1
Result: 1.17

Q: Look up composite z-score with Follistatin-related protein 3 (Homo sapiens) (UniProt O95633) for this compound: C#CCCCON=C1C[C@@H](O)[C@@H](O)[C@@H]2[C@@H]3C(=O)N(CC)C(=O)[C@@H]3CC[C@@H]12
Result: 0.496

Q: Look up composite z-score with Follistatin-related protein 3 (Homo sapiens) (UniProt O95633) for this compound: COC(=O)CC=C[C@@H](C)[C@@H](C=NOC[C@H]1O[C@H](c2ccccc2)C=C[C@@H]1Oc1ccc(OC)cc1)NS(=O)(=O)c1ccc(C)cc1
Result: -1.2

Q: Look up composite z-score with Follistatin-related protein 3 (Homo sapiens) (UniProt O95633) for this compound: CO[C@H]1COC(=O)CC=C[C@H](C)COC(=O)[C@@H](C)NC(=O)CC=C[C@@H]1C
Result: 1.47

Q: Look up composite z-score with Follistatin-related protein 3 (Homo sapiens) (UniProt O95633) for this compound: CO[C@H]1COC(=O)CC=C[C@@H](C)[C@H](NS(=O)(=O)c2ccc(C)cc2)COC(=O)CCC[C@@H]1C
Result: 1.04

Q: Look up composite z-score with Follistatin-related protein 3 (Homo sapiens) (UniProt O95633) for this compound: CO[C@H]1COC(=O)[C@H](C)NC(=O)CC=C[C@@H](C)[C@H](OC)COC(=O)[C@@H](OCc2ccccc2)C=C[C@@H]1C
Result: 0.492

Q: Look up composite z-score with Follistatin-related protein 3 (Homo sapiens) (UniProt O95633) for this compound: O=C(NN=C1C[C@@H](O)[C@@H](O)[C@@H]2[C@@H]3C(=O)N(C4CCCCC4)C(=O)[C@@H]3CC[C@H]12)OCc1ccccc1
Result: -0.483

Q: Look up composite z-score with Follistatin-related protein 3 (Homo sapiens) (UniProt O95633) for this compound: C#CCCCON=C1C[C@@H](O)[C@@H](O)[C@@H]2[C@@H]3C(=O)N(c4ccc(F)cc4F)C(=O)[C@@H]3CC[C@@H]12
Result: 0.218

Q: Look up composite z-score with Follistatin-related protein 3 (Homo sapiens) (UniProt O95633) for this compound: COC(=O)[C@H](C)NC(=O)CCC1CC(OC(=O)NCc2ccc3c(c2)OCO3)CC2(CCCC(COC(=O)NCc3cccc(C(F)(F)F)c3)O2)O1 (some centres undefined)
Result: 1.14

Further cases:
Q: Look up composite z-score with Follistatin-related protein 3 (Homo sapiens) (UniProt O95633) for this compound: COc1ccc(COC(=O)NN=C2C[C@@H](O)[C@@H](O)[C@@H]3[C@@H]4C(=O)N(Cc5ccccc5)C(=O)[C@@H]4CC[C@H]23)cc1
Result: -0.22

Q: Look up composite z-score with Follistatin-related protein 3 (Homo sapiens) (UniProt O95633) for this compound: CCOC(=O)[C@H](Cc1ccccc1)NC(=O)CCC1CC(OC(=O)NCCc2ccc(F)cc2)CC2(CCCC(COC(=O)NCCc3ccc(Cl)cc3)O2)O1 (some centres undefined)
Result: 0.422

Q: Look up composite z-score with Follistatin-related protein 3 (Homo sapiens) (UniProt O95633) for this compound: COc1ccc(O[C@H]2C=C[C@@H](c3ccccc3)O[C@@H]2COC(=O)CCC(C)=NOC(C)CN2CCCc3nc(C)c(C)cc32)cc1 (some centres undefined)
Result: 0.889

Q: Look up composite z-score with Follistatin-related protein 3 (Homo sapiens) (UniProt O95633) for this compound: CCOC(=O)C1=NO[C@@]2(C=C(Br)C3(OCCCO3)[C@H]3O[C@H]32)C1
Result: 0.842
